test details: in vivo
Design: species or system Sprague-Dawley male rats
measurement parameters: rat, 15 mg/kg, Concentration
Counter-ions that a name gives are not always drawn.
endpoint: concentration at 1.25 h (ng/mL)
Write the value in ng/mL as a bare number.

// query Param item = CCN(CC)CCNC(=O)c1cc(Cl)c(N)cc1OC [metoclopramide hydrochloride] ; retrieve measured concentration at 1.25 h.
// result 1110

---

test details: 4-way crossover study of metoclopramide hydrochloride (nasal, oral, intramuscular) in volunteer human subjects
Type: in vivo
measurement parameters: human, in vivo, Time to Peak
Structures can show the parent of a compound that is named as a salt.
endpoint: Tmax

// query Item under review: CCN(CC)CCNC(=O)c1cc(Cl)c(N)cc1OC [metoclopramide hydrochloride] . Reported Tmax?
// result 1.34 h
